testDescription: Aqueous solubility study in buffers at 37° C.
Type: physicochemical
conditionsUsed: simulated gastric fluid, thermodynamic from solid; SGF (pH 2.0), overnight at 37° C.
Structures can show the parent of a compound that is named as a salt.
assayMetric: solubility (mg/mL)
Value expressed in mg/mL; do not type the unit.

input: Could you share which solubility value was measured for O=C(Cc1ccc(-c2ccc(OCCN3CCOCC3)cc2)cn1)NCc1ccccc1 [KX2-391.MSA, mesylate] ?
output: 700

---

A collection of compounds and their measured Threshold solubility rank
testDescription: Threshold solubility of salt screen 96 well plate
conditionsUsed: salt screen well: 1 Equivalent of Acid, Dioxane; DI water
Where a name gives a salt, the structure may show the parent alone.
Provide a numeric answer; units are not to be included.

Sample records with Threshold solubility rank:
input: Item under review: O=C(Cc1ccc(-c2ccc(OCCN3CCOCC3)cc2)cn1)NCc1ccccc1.O=C(O)C=CC(=O)O [Fumaric] . Reported Threshold solubility rank?
output: 4

input: // lookup Threshold solubility rank for Cc1ccc(S(=O)(=O)O)cc1.O=C(Cc1ccc(-c2ccc(OCCN3CCOCC3)cc2)cn1)NCc1ccccc1 [p-TSA]
output: 5

input: Which Threshold solubility rank value belongs to O=C(Cc1ccc(-c2ccc(OCCN3CCOCC3)cc2)cn1)NCc1ccccc1 [KX2-391.MSA, mesylate] ?
output: 1

***
input: Quick one: Threshold solubility rank of O=C(O)CC(O)C(=O)O (stereo not shown) [Malic] ?
output: 1
